# target or test system: H1047R PIK3CA enzyme (Homo sapiens, UniProt P42336, H1047R)
# Sequence (P42336 whole entry H1047R): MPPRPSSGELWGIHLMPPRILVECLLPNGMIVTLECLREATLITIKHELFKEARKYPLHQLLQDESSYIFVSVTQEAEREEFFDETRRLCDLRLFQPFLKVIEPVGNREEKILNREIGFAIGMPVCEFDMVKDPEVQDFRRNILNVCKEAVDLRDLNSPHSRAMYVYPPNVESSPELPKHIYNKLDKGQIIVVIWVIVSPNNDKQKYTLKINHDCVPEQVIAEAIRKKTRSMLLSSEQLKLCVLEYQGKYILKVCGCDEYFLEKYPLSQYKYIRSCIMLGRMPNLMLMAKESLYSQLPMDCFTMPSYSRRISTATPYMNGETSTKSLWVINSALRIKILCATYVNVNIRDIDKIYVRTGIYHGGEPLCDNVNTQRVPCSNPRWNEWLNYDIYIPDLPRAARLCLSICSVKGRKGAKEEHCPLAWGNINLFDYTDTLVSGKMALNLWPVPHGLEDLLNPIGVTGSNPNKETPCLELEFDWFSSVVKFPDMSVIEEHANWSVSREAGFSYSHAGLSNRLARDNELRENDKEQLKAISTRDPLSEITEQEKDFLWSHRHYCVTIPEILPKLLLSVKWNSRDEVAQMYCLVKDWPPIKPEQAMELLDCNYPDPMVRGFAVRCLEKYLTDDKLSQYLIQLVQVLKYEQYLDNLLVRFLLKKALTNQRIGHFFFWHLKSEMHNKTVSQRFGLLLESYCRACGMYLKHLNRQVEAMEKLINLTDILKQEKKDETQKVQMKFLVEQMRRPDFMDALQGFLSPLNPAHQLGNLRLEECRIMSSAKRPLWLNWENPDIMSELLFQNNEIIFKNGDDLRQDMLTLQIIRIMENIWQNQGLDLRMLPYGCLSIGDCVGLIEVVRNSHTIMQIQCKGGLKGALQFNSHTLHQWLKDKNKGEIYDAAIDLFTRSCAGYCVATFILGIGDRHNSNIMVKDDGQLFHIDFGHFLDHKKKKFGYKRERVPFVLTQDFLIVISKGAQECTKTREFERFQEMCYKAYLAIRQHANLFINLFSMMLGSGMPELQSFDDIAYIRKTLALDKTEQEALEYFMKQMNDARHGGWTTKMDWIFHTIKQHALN
# Sequence (P27986 whole entry partner): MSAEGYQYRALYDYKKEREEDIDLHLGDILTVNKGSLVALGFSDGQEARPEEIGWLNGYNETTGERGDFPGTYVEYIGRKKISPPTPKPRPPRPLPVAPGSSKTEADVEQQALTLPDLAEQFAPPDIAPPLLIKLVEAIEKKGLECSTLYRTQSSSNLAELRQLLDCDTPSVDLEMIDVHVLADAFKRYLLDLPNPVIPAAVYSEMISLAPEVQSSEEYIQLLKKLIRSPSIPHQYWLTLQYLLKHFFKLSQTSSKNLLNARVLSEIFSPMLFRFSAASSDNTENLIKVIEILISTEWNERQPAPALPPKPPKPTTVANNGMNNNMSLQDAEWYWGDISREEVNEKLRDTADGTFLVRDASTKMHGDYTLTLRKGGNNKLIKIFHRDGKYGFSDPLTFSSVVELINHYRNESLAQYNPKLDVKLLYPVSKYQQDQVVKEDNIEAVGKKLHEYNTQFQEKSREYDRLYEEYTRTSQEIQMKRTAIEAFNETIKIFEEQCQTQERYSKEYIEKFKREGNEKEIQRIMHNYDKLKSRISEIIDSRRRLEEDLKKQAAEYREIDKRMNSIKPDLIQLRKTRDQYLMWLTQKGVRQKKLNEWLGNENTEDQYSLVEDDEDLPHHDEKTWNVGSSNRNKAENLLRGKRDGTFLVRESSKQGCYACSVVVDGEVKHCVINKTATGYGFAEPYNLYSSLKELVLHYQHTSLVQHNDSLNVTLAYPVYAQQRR
# test summary: ADP-Glo Biochemical PIK3CA Kinase Assay
value kind: IC50

Consider the reported IC50 for these compounds:
CS(=O)(=O)n1cc(-c2cc(NC(=O)c3cc(F)cc(C(F)(F)F)c3)c3c(c2)C(=O)NC3c2cc(F)ccc2Cl)cn1 (stereo not drawn) :: ≤ 0.1 µM
O=C(Nc1cc(N2CCOc3ccccc32)cc2c1C(c1cc(F)ccc1Cl)NC2=O)c1cc(F)cc(C(F)(F)F)c1 (stereo not drawn) :: ≤ 0.1 µM
N#Cc1cccnc1-c1cc(NC(=O)c2cc(F)cc(C(F)(F)F)c2)c2c(c1)C(=O)NC2c1cc(F)ccc1Cl (stereo not drawn) :: ≤ 0.1 µM
O=C1N[C@@H](c2cc(F)ccc2Cl)c2c(NC(=O)N3C[C@](O)(C(F)(F)F)c4cc(F)ccc43)cccc21 (single isomer, unassigned) :: 1 to 10 µM
O=C1CCC[C@H]([C@@H]2NC(=O)c3cccc(NC(=O)c4cc(F)cc(C(F)(F)F)c4)c32)C1 (single isomer, unassigned) :: 10 to 100 µM

Exercise: // query IC50 value for entry O=C(Nc1cc(N2CC(F)(F)C2)nc2c1[C@H](c1cc(F)ccc1Cl)NC2=O)c1cc(F)cc(C(F)(F)F)c1
Key: ≤ 0.1 µM

Exercise: // query IC50 value for entry O=C1N[C@H](c2cc(F)ccc2Cl)c2c(NC(=O)N3C[C@@](O)(C(F)(F)F)c4ccccc43)cccc21 (single isomer, unassigned)
Key: 10 to 100 µM

Exercise: // query IC50 value for entry Cc1ccccc1C1NC(=O)c2cccc(NC(=O)c3csc4cccc(F)c34)c21 (stereo not drawn)
Key: 1 to 10 µM

Exercise: // query IC50 value for entry NCc1cc(NC(=O)N2CC(O)(C(F)(F)F)c3cc(F)ccc32)c2c(c1)C(=O)NC2c1cc(F)ccc1Cl (stereo not drawn)
Key: ≤ 0.1 µM
